Where do these numbers come from? They come from the supplement of paper PMC10126150.

# Tested on: ATP;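 note: ATP exposure 15 min at 22 °C before imaging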
# Experimental details: switch fluorescence ratio, 500 uM ATP over buffer (Cy3 cluster intensity, sum of 5 cycles each) (fold (ratio)); higher = stronger signal-on switching upon ATP binding; sequences stand for … in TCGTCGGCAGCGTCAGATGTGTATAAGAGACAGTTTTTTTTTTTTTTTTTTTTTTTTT…TC
# Experimental conditions: aptamer strand: ATP DNA aptamer (quencher-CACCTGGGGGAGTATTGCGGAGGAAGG + anchor), 100 nM annealed; ATP concentration: 500 uM
Reported switch fluorescence ratio values for the following sequences.
Kindly provide the number alone.

{"Sequence input": "TGCCTCTTTT", "switch fluorescence ratio": 0.989}
{"Sequence input": "AGTGGGGAGC", "switch fluorescence ratio": 0.978}
{"Sequence input": "CCCGATGTTA", "switch fluorescence ratio": 0.997}
{"Sequence input": "CTTACAGTTT", "switch fluorescence ratio": 1}
{"Sequence input": "ACGGTTGAG", "switch fluorescence ratio": 0.96}
{"Sequence input": "CGTTGGGACG", "switch fluorescence ratio": 1}
{"Sequence input": "CTATTAGATG", "switch fluorescence ratio": 0.994}
{"Sequence input": "TTACGGATTC", "switch fluorescence ratio": 1.39}
{"Sequence input": "GGGATTGAGC", "switch fluorescence ratio": 1.03}
{"Sequence input": "GGGTCATTGA", "switch fluorescence ratio": 0.998}

Name the reported switch fluorescence ratio value associated with the sequence TTTTATTTCG
1.03

* * *

switch fluorescence ratio listing for selected sequences.
# Tested on: ATP;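 note: ATP exposure 15 min at 22 °C before imaging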
# Experimental details: switch fluorescence ratio, 500 uM ATP over buffer (Cy3 cluster intensity, sum of 5 cycles each) (fold (ratio)); higher = stronger signal-on switching upon ATP binding; sequences stand for … in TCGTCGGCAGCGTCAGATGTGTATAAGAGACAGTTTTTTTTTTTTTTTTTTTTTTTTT…TC
# Experimental conditions: aptamer strand: ATP DNA aptamer (quencher-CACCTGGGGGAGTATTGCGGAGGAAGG + anchor), 100 nM annealed; ATP concentration: 500 uM
Form rule: numeric answer, no unit written next to it.

Answered examples (3):
{"Sequence input": "TTATAGCCCA", "Target system": "ATP", "Experimental result": 1.02}
{"Sequence input": "TTTTGAATCG", "Target system": "ATP", "Experimental result": 1.01}
{"Sequence input": "TTTTTTAAGG", "Target system": "ATP", "Experimental result": 1}

Returns the measured switch fluorescence ratio for the input sequence. Input: GGGCCTTTAT
1.02

Next record, please: GGGGCGAGTG
1

Also, TTGAATGCCG please.
1.04

# repeat for TTGTCCCTGC
1.02

Thanks! And CTGTTTCCGA ?
1.03

Try GACCGAAAGT next.
0.998

Another sequence to check: GTCAGGAAGT
1.02

Can you handle TTCTGGCACG next?
1.12

Let us now turn to ATGATCAAAT
1

Okay, and TTTATAGGCG ?
0.987

Entry TTGTTCAAGT please
0.998

TAACAGGTGG , same question.
1.02

Note, next up: GGAGGCGTTC
0.995

Next sequence up: TAAGAGGTGT
1.04

Same for GGTCATGGGA
0.99

Entry to check: TACGAAATTG
1.06

Cool, now CGATTTTGGG
0.984
